Test system: HTT
Experiment: Splicing RT-qPCR assay, HTT mRNA canonical junction (CJ) and alternative junction (AJ)
Assay type: cell-based, human
Details: RT-qPCR panel, canonical junction mRNA; compound concentration having 50% response in CJ decrease; read-out: HTT IC50 (decrease in CJ mRNA levels)
pIC50: −log10 of the molar value.
measured_endpoint: pIC50

INSERT INTO assay_data (molecule, study_target, result) VALUES
  ('c1cnn(-c2ccc(-c3cnc(N4CCC(NC5CC5)C4)nn3)c3cn[nH]c23)c1 (stereo not shown) [Compound 548]', 'HTT', '5.00 to 6.00'),
  ('CC(C)(C)NC1CCN(c2ccc(-c3ccc(-c4cn[nH]c4)c4ncsc34)nn2)C1 (stereo not shown) [Compound 345]', 'HTT', '5.00 to 6.00'),
  ('CN(c1ccc(-c2cc(F)c(-c3cnn(C)c3)c3cn[nH]c23)nn1)C1CC(C)(C)NC(C)(C)C1 [Compound 326]', 'HTT', '6.00 to 7.00');

Respond only with pIC50 recorded for FC1(F)CC2CC(Oc3ccc(-c4ccc(-c5cn[nH]c5)c5cn[nH]c45)nn3)CC1N2 (stereo not shown) [Compound 374] < 5.00

Cited source for all entries: patent US20240368163A1
